Tested on: MCF7
Test: Nonspecific cytotoxicity against human MCF7 cells after 44 hrs by MTT assay
Type: functional
Settings: MCF7, 44 h
hey, just use rule met if measured GI50 is less than 2000 nM, otherwise rule not met

Molecule | Answer label
CC(C)[C@H](c1nc2cc(Cl)ccc2c(=O)n1Cc1ccccc1)N(CCCN)C(=O)c1ccc(F)cc1 | rule not met
CC(C)C(c1nc2cc(Cl)ccc2c(=O)n1Cc1ccccc1)N(CCCN)C(=O)c1cccc(F)c1 (racemic) | rule not met
CC(C)C(c1nc2cc(Cl)ccc2c(=O)n1Cc1ccccc1)N(CCCN)C(=O)c1ccc(F)cc1 (racemic) | rule not met
CC(C)[C@H](c1nc2cc(Cl)ccc2c(=O)n1Cc1ccccc1)N(CCCN)C(=O)c1ccccc1F | rule not met
CC(C)[C@@H](c1nc2cc(Cl)ccc2c(=O)n1Cc1ccccc1)N(CCCN)C(=O)c1cccc(F)c1 | rule met
CC(C)C(c1nc2cc(Cl)ccc2c(=O)n1Cc1ccccc1)N(CCCN)C(=O)c1ccccc1F (racemic) | rule met
CC(C)[C@@H](c1nc2cc(Cl)ccc2c(=O)n1Cc1ccccc1)N(CCCN)C(=O)c1ccc(F)cc1 | rule met

---

Target: Kinesin-like protein KIF2C (Homo sapiens) (UniProt Q99661)
Sequence (Q99661 whole entry): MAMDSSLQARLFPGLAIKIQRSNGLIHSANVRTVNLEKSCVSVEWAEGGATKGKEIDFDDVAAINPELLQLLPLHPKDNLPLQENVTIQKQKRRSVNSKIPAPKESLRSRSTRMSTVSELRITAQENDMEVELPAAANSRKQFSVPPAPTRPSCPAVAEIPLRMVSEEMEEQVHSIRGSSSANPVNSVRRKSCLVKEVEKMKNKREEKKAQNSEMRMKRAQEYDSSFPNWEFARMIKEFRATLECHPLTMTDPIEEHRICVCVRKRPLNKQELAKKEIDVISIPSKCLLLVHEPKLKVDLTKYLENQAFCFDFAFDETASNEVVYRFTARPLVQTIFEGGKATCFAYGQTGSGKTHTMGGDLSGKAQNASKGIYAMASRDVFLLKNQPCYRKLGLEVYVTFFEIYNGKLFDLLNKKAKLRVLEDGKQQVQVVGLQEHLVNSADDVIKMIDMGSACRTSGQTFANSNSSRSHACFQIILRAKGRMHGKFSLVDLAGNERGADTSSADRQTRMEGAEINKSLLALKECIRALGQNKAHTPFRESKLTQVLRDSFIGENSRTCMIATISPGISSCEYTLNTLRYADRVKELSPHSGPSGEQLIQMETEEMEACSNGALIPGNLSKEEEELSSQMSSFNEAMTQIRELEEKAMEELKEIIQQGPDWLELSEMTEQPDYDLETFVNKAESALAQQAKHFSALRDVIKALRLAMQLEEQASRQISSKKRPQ
Assay: Inhibition of MCAK (unknown origin)-mediated ATP hydrolysis assessed as residual activity at 1 uM after 10 to 20 mins by spectrophotometric analysis
Activity: recorded values

Compound | Activity / %
CC(C)[C@@H](c1nc2cc(Cl)ccc2c(=O)n1Cc1ccccc1)N(CCCN)C(=O)c1ccc(F)cc1 | 98.9
Cc1ccc(C(=O)N(CCCN)[C@H](c2nc3cc(Cl)ccc3c(=O)n2Cc2ccccc2)C(C)C)cc1 | 99.2
CC(C)[C@H](c1nc2cc(Cl)ccc2c(=O)n1Cc1ccccc1)N(CCCN)C(=O)c1ccc(F)cc1 | 99.2
CC(C)[C@H](c1nc2cc(Cl)ccc2c(=O)n1Cc1ccccc1)N(CCCN)C(=O)c1ccccc1F | 98.7
Cc1ccc(C(=O)N(CCCN)[C@@H](c2nc3cc(Cl)ccc3c(=O)n2Cc2ccccc2)C(C)C)cc1 | 96.7
CC(C)C(c1nc2cc(Cl)ccc2c(=O)n1Cc1ccccc1)N(CCCN)C(=O)c1cccc(F)c1 (racemic) | 96.4
CC(C)[C@@H](c1nc2cc(Cl)ccc2c(=O)n1Cc1ccccc1)N(CCCN)C(=O)c1ccccc1F | 98.2
CC(C)[C@@H](c1nc2cc(Cl)ccc2c(=O)n1Cc1ccccc1)N(CCCN)C(=O)c1cccc(F)c1 | 98.6

---

Test system: PC-3
Test: Cytotoxicity against human PC3 cells assessed as inhibition of KSP-mediated cell cycle progression after 44 hrs by MTT assay
Type: functional
Details: PC-3, 44 h
hey, just use MET if measured GI50 is less than 2 nM, otherwise NOT MET

Compound | Answer label
CC(C)[C@H](c1nc2cc(Cl)ccc2c(=O)n1Cc1ccccc1)N(CCCN)C(=O)c1ccccc1F | NOT MET
CC(C)C(c1nc2cc(Cl)ccc2c(=O)n1Cc1ccccc1)N(CCCN)C(=O)c1cccc(F)c1 (racemic) | NOT MET
CC(C)C(c1nc2cc(Cl)ccc2c(=O)n1Cc1ccccc1)N(CCCN)C(=O)c1ccccc1F (racemic) | MET
CC(C)C(c1nc2cc(Cl)ccc2c(=O)n1Cc1ccccc1)N(CCCN)C(=O)c1ccc(F)cc1 (racemic) | NOT MET
CC(C)[C@H](c1nc2cc(Cl)ccc2c(=O)n1Cc1ccccc1)N(CCCN)C(=O)c1ccc(F)cc1 | MET

The measurements presented in this section are drawn from ChEMBL document CHEMBL2321780.
